Taken from ChEMBL document CHEMBL1154588.

Quick note: these are Ki numbers for system: Protease (Human immunodeficiency virus 1, UniProt Q9YQ12)
Sequence (Q9YQ12 whole entry): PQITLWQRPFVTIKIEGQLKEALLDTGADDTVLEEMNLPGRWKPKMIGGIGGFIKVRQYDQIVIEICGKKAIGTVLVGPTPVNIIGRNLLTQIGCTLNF
Value type: Ki (µM)

{"Smiles string": "NCCNC(=O)[C@H](Cc1ccccc1)n1cc([C@H](Cc2ccccc2)n2cc([C@H](Cc3ccccc3)n3cc([C@H](Cc4ccccc4)n4cc([C@@H](N)Cc5ccccc5)nn4)nn3)nn2)nn1", "Value type": "Ki", "Meas value": 25}
{"Smiles string": "C[C@H](c1ccccc1)n1cc([C@H](Cc2ccccc2)n2cc([C@H](Cc3ccccc3)n3cc([C@H](Cc4ccccc4)n4cc([C@@H](N)Cc5ccccc5)nn4)nn3)nn2)nn1", "Value type": "Ki", "Meas value": 25}

* * *

This section presents molecules with their documented pIC50 values.
Experimental target: Protease (Human immunodeficiency virus 1)
pIC50: −log10 of the molar value.
Value type: pIC50

{"Smiles string": "NCCNC(=O)[C@H](Cc1ccccc1)n1cc([C@H](Cc2ccccc2)n2cc([C@H](Cc3ccccc3)n3cc([C@H](Cc4ccccc4)n4cc([C@@H](N)Cc5ccccc5)nn4)nn3)nn2)nn1", "Experimental target": "Protease (Human immunodeficiency virus 1)", "Readout qualifier": "=", "Meas value": 4.60}
{"Smiles string": "CNC(=O)[C@H](C(C)C)n1cc([C@H](Cc2ccccc2)n2cc([C@H](Cc3ccccc3)n3cc([C@@H](N)C(C)C)nn3)nn2)nn1", "Experimental target": "Protease (Human immunodeficiency virus 1)", "Readout qualifier": "<", "Meas value": 3.30}
{"Smiles string": "CNC(=O)[C@H](Cc1ccccc1)n1cc([C@H](Cc2ccccc2)n2cc([C@H](Cc3ccccc3)n3cc([C@H](Cc4ccccc4)n4cc([C@@H](N)Cc5ccccc5)nn4)nn3)nn2)nn1", "Experimental target": "Protease (Human immunodeficiency virus 1)", "Readout qualifier": "=", "Meas value": 4.14}
{"Smiles string": "CC(C)[C@@H](c1cn([C@@H](Cc2ccccc2)c2cn([C@@H](Cc3ccccc3)c3cn([C@H](c4cn([C@H](C)c5ccccc5)nn4)C(C)C)nn3)nn2)nn1)n1cc(CCc2ccccc2)nn1", "Experimental target": "Protease (Human immunodeficiency virus 1)", "Readout qualifier": "=", "Meas value": 4.00}
{"Smiles string": "CC(C)[C@H](N)c1cn([C@@H](Cc2ccccc2)c2cn([C@@H](Cc3ccccc3)c3cn([C@H](C)c4ccccc4)nn3)nn2)nn1", "Experimental target": "Protease (Human immunodeficiency virus 1)", "Readout qualifier": "=", "Meas value": 3.89}
{"Smiles string": "C[C@H](c1ccccc1)n1cc([C@H](Cc2ccccc2)n2cc([C@H](Cc3ccccc3)n3cc([C@H](Cc4ccccc4)n4cc([C@@H](N)Cc5ccccc5)nn4)nn3)nn2)nn1", "Experimental target": "Protease (Human immunodeficiency virus 1)", "Readout qualifier": "=", "Meas value": 4.54}
{"Smiles string": "CC(C)[C@H](N)c1cn([C@@H](Cc2ccccc2)c2cn([C@@H](Cc3ccccc3)c3cn([C@H](c4cn([C@H](C)c5ccccc5)nn4)C(C)C)nn3)nn2)nn1", "Experimental target": "Protease (Human immunodeficiency virus 1)", "Readout qualifier": "=", "Meas value": 4.22}
{"Smiles string": "CC(C)[C@H](N)c1cn([C@H](c2cn([C@@H](Cc3ccccc3)c3cn([C@H](c4cn([C@H](C)c5ccccc5)nn4)C(C)C)nn3)nn2)C(C)C)nn1", "Experimental target": "Protease (Human immunodeficiency virus 1)", "Readout qualifier": "=", "Meas value": 3.88}
